test system: U2OS; assay: Multiplex assay against U2OS; type: toxicity, cell-based; conditions: human, 24 h, 10 µM, compound concentration 10 uM, replicate 1
Cut-off 20% on Population Pyknosed Nuclei (%), inclusive. At or above means true; below means false.

Consider the worked cases shown below.
| COMPOUND | QUALITATIVE LABEL |
| --- | --- |
| CCN(CC)CCCCNc1ncc2cc(-c3cc(OC)cc(OC)c3)c(NC(=O)NC(C)(C)C)nc2n1 [PD-173074] | true |
| CN(C)c1ncnc(-c2ccc3nc(Nc4cc(CN5CCN(C(=O)CC(F)(F)F)CC5)ccn4)[nH]c3c2)c1Cl [BAY-440] | false |
| Cc1nc(-c2cn3c(n2)-c2ccc(-c4cnn(C(C)(C)C(N)=O)c4)cc2OCC3)n(C(C)C)n1 [TASELISIB] | false |
| CN1CCC[C@@H]1CCO[C@](C)(c1ccccc1)c1ccc(Cl)cc1.O=C(O)/C=C/C(=O)O [CLEMASTINE FUMARATE] | true |
| O=C1NCN(c2ccccc2)C12CCN(CCCOc1ccc(F)cc1)CC2 [SPIRAMIDE] | true |

q: Quick check: does CC(C)NCC(O)COc1ccc(CCOCC2CC2)cc1.Cl (stereo not drawn) [BETAXOLOL HYDROCHLORIDE] have Population Pyknosed Nuclei (%) greater than or equal to 20%?
a: false

q: Quick check: does Cc1nc(Nc2n[nH]c3c2CN(C(=O)N[C@H](CN(C)C)c2ccccc2)C3(C)C)c2sccc2n1 [PF-03758309] have Population Pyknosed Nuclei (%) greater than or equal to 20%?
a: true

q: Quick check: does CN(C)C(=O)/C(C#N)=C/c1ccc(-c2nc3cnc4[nH]ccc4c3n2C2CCCCC2)o1 have Population Pyknosed Nuclei (%) greater than or equal to 20%?
a: true

====

system: U2OS; test: Multiplex assay against U2OS; assay type: toxicity, cell-based; conditions: human, 12 h, 10 µM, compound concentration 10 uM, replicate 2
# reported Population Tubulin-Different-Phenotype (%); entries follow
Field: numeric (%). Do not append units.

| COMPOUND | OBSERVED MEASUREMENT |
| --- | --- |
| COc1ccc(Oc2cc(NCCC(F)(F)F)c3ncc(-c4ccc(C(=O)NC5CC5)c(C)c4)n3n2)c(F)c1F [BAY-1217389] | 88 |
| Cc1nc(-c2ccc(-c3ccc(C(=O)N4CCc5cc6c(cc54)C4(CCN(C)CC4)CO6)cc3)c(C)c2)no1 [SB-224289] | 100 |

q: Fill blank: measured Population Tubulin-Different-Phenotype (%) of the compound CN1CCN(c2ccc(OC(F)(F)F)c(Nc3ncc4c(n3)-c3c(c(C(N)=O)nn3CCO)CC4)c2)CC1 [ONVANSERTIB] is ____.
a: 78

q: Fill blank: measured Population Tubulin-Different-Phenotype (%) of the compound Cc1csc2c(N[C@@H](C)CN3CCN(S(=O)(=O)c4ccc(Cl)c(Cl)c4)CC3)ncnc12 is ____.
a: 98

====

tested on: Fibroblast; test: Multiplex assay against human fibroblast; assay type: toxicity, cell-based; settings: 48 h, 1 µM, compound concentration 1 uM, replicate 1
QUANTITY KIND: Population Fragmented Nuclei (%)
Field: numeric (%). Do not append units.

Use these answered entries as a reference point.
| MOLECULE | Population Fragmented Nuclei (%) |
| --- | --- |
| Cc1csc2c(N[C@@H](C)CN3CCN(S(=O)(=O)c4ccc(Cl)c(Cl)c4)CC3)ncnc12 | 22 |
| c1cn2cc(-c3ccc4cn[nH]c4c3)nc(Nc3ccc(N4CCOCC4)cc3)c2n1 | 29 |
| C=CC(=O)Nc1cccc(C(=O)Nc2ccc(Nc3cc(-c4[nH]c(SC)nc4C)ccn3)cc2)c1 | 25 |
| CN(C)C(=O)/C(C#N)=C/c1ccc(-c2nc3cnc4[nH]ccc4c3n2C2CCCCC2)o1 | 33 |

The record that follows has no Population Fragmented Nuclei (%) shown yet.
q: Fill blank: measured Population Fragmented Nuclei (%) of the molecule C[C@@H](NCCCc1cccc(C(F)(F)F)c1)c1cccc2ccccc12.Cl [CINACALCET HYDROCHLORIDE] is ____.
a: 33
